# System: A549 cells
# measurement.protocol: Cell viability assay (MTT)
# Format: cell-based
# condition.parameters: Homo sapiens, 72 h, MTT
pIC50: −log10 of the molar value.
measure.name: pIC50

1) c1ccc(Cn2c(-c3ccc(OC[C@H](C4CCNCC4)n4c(-c5ccccc5)nc5ccccc54)cc3)nc3ccccc32)cc1 [deltarasin]    5.28
